Please provide measured viability, T/C for the entries that follow.
Test system: 282377-053-R-J1-PDC complex spheroid viability;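 note: spheroids exposed to agents for seven days before readout; luminescence viability as percent of DMSO vehicle control wells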
Assay: Anticancer human tumor 282377-053-R-J1-PDC patient-derived colon adenocarcinoma cell line growth inhibition [RAS]
Conditions: second compound 3.16 µM; first compound 1 µM; hits give low values
Source text: RAS pathway inhibitors in Combinations in Complex Spheroids A high-throughput screen of multi-cell type tumor spheroids was designed to identify active combinations of RAS pathway inhibitors and targeted small molecules. Complex spheroids include a stromal component modeled by human endothelial cells (HUVEC) and fibroblasts modeled by human mesenchymal stem cells (MSCs). […] Compounds. […] If the clinical Cmax for an agent had not been determined, the highest concentration tested was 10 microM. […]
One number for each entry, in %.

Qu. I have this compound here, C=CC(=O)Nc1cc(Nc2nccc(-c3cn(C)c4ccccc34)n2)c(OC)cc1N(C)CCN(C)C + C#Cc1c(F)ccc2cc(O)cc(-c3ncc4c(N5CC6CCC(C5)N6)nc(OCC56CCCN5CC(F)C6)nc4c3F)c12 , and I need its recorded viability, T/C.
Ans. 101

Provide viability, T/C values for the following items, in order.
1. CC(=O)OC12COC1CC(O)C1(C)C(=O)C(O)C3=C(C)C(OC(=O)C(O)C(NC(=O)OC(C)(C)C)c4ccccc4)CC(O)(C(OC(=O)c4ccccc4)C21)C3(C)C (stereo not drawn) + C#Cc1c(F)ccc2cc(O)cc(-c3ncc4c(N5CC6CCC(C5)N6)nc(OCC56CCCN5CC(F)C6)nc4c3F)c12
2. CC(Nc1ccc2c(c1)OCCn1cc(N3C(=O)OCC3C(F)F)nc1-2)C(N)=O (stereo not drawn) + C#Cc1c(F)ccc2cc(O)cc(-c3ncc4c(N5CC6CCC(C5)N6)nc(OCC56CCCN5CC(F)C6)nc4c3F)c12

Ans.
[39.6, 77.5]

# credit: PubChem BioAssay AID2060905
